Examples of molecules with documented MIC follow.
System: Staphylococcus aureus ATCC 29213
Assay: In vitro MIC, Broth Dilution Method
Format: cell-based
Conditions: ATCC29213; Broth Dilution Method; Staphylococcus aureus ATCC 29213; read-out: In Vitro MIC
Where a name gives a salt, the structure may show the parent alone.

{"molecule": "CC1(C)S[C@@H]2[C@H](N=CN3CCN(c4c(F)cc5c(=O)c(C(=O)O)cn(CCF)c5c4F)CC3)C(=O)N2[C@H]1C(=O)O [Compound D, monosodium salt]", "MIC / µg/mL": 4}
{"molecule": "CCn1cc(C(=O)O)c(=O)c2cc(F)c(N3CCN(C=N[C@@H]4C(=O)N5C(C(=O)O)=C(COC(C)=O)CS[C@H]45)CC3)cc21 [Compound I, monosodium salt]", "MIC / µg/mL": 2}
{"molecule": "CCn1cc(C(=O)O)c(=O)c2cc(F)c(N3CCN(C=N[C@@H]4C(=O)N5[C@@H]4SC(C)(C)[C@@H]5C(=O)O)CC3)nc21 [Compound H, disodium salt]", "MIC / µg/mL": 0.5}

* * *

Examples of molecules with documented MIC follow.
System: Escherichia coli 4
Experiment: In vitro MIC, Broth Dilution Method
Type: cell-based
Settings: Escherichia coli, 4, read-out: In Vitro MIC
Description: The diluted agents prepared in Mueller-Hinton broth were dispensed from a Dynatech MIC 2000 machine, in 100 microliter (μL) volumes into 96 well trays and used immediately or frozen at -10° to -70° C. until needed. Using a Dynatech inoculator and inoculum trays, 1.5 μL of a 10^-2 dilution of an overnight culture was added to each well of the tray. The tops of the trays were then sealed with tape, and the trays were incubated overnight at 37° C. and then examined with a viewer. […]
Structures can show the parent of a compound that is named as a salt.
assay readout: MIC

{"molecule": "CCn1cc(C(=O)[O-])c(=O)c2cc(F)c(N3CCN(C=N[C@H]4CN(S(=O)(=O)[O-])C4=O)CC3)cc21.[Na+].[Na+] [Compound E]", "result": "0.125 µg/mL"}
{"molecule": "CCn1cc(C(=O)[O-])c(=O)c2cc(F)c(N3CCN(C=N[C@@H]4C(=O)N(S(=O)(=O)[O-])[C@@H]4COC(N)=O)CC3)cc21.[Na+].[Na+] [Compound F]", "result": "0.125 µg/mL"}
{"molecule": "CCn1cc(C(=O)O)c(=O)c2cc(F)c(N3CCN(C=N[C@@H]4C(=O)N5C(C(=O)O)=C(CSc6nc(=O)c(=O)[nH]n6C)CS[C@H]45)CC3)cc21 [Compound J, disodium salt]", "result": "0.25 µg/mL"}
{"molecule": "CC1(C)S[C@@H]2[C@H](N=CN3CCN(c4c(F)cc5c(=O)c(C(=O)O)cn(CCF)c5c4F)CC3)C(=O)N2[C@H]1C(=O)O [Compound D, monosodium salt]", "result": "0.125 µg/mL"}
{"molecule": "CCn1cc(C(=O)O)c(=O)c2cc(F)c(N3CCN(C=N[C@@H]4C(=O)N5[C@@H]4SC(C)(C)[C@@H]5C(=O)O)CC3)nc21 [Compound H, disodium salt]", "result": "0.125 µg/mL"}

* * *

System: Pseudomonas aeruginosa ATCC 27853
Assay: In vitro MIC, Broth Dilution Method
Type: cell-based
Conditions: ATCC27853; Broth Dilution Method; Pseudomonas aeruginosa ATCC 27853; read-out: In Vitro MIC
Counter-ions that a name gives are not always drawn.

{"compound": "CCn1cc(C(=O)O)c(=O)c2cc(F)c(N3CCN(C=N[C@@H]4C(=O)N5C(C(=O)O)=C(C)CS[C@H]45)CC3)cc21 [Compound C, disodium salt]", "sign qualifier": "=", "MIC, µg/mL": 2}
{"compound": "CCn1cc(C(=O)O)c(=O)c2cc(F)c(N3CCCN(C=N[C@@H]4C(=O)N5[C@@H]4SC(C)(C)[C@@H]5C(=O)O)CC3)cc21 [Compound G, disodium salt]", "sign qualifier": "=", "MIC, µg/mL": 16}
{"compound": "CC1(C)S[C@@H]2[C@H](N=CN3CCN(c4c(F)cc5c(=O)c(C(=O)O)cn(CCF)c5c4F)CC3)C(=O)N2[C@H]1C(=O)O [Compound D, monosodium salt]", "sign qualifier": "=", "MIC, µg/mL": 2}
{"compound": "CCn1cc(C(=O)O)c(=O)c2cc(F)c(N3CCN(C=N[C@@H]4C(=O)N5[C@@H]4SC(C)(C)[C@@H]5C(=O)O)CC3)nc21 [Compound H, disodium salt]", "sign qualifier": "=", "MIC, µg/mL": 8}
{"compound": "CCn1cc(C(=O)O)c(=O)c2cc(F)c(N3CCN(C=N[C@@H]4C(=O)N5C(C(=O)O)=C(CSc6nc(=O)c(=O)[nH]n6C)CS[C@H]45)CC3)cc21 [Compound J, disodium salt]", "sign qualifier": "=", "MIC, µg/mL": 16}
{"compound": "CCn1cc(C(=O)O)c(=O)c2cc(F)c(N3CCN(C=N[C@@H]4C(=O)N5C(C(=O)O)=C(COC(C)=O)CS[C@H]45)CC3)cc21 [Compound I, monosodium salt]", "sign qualifier": "=", "MIC, µg/mL": 8}
{"compound": "CCn1cc(C(=O)OC)c(=O)c2cc(F)c(N3CCN(C=N[C@@H]4C(=O)N5[C@@H]4SC(C)(C)[C@@H]5C(=O)O)CC3)cc21", "sign qualifier": ">", "MIC, µg/mL": 128}
{"compound": "CCn1cc(C(=O)O)c(=O)c2cc(F)c(N3CCN(C=N[C@@H]4C(=O)N5[C@@H]4SC(C)(C)[C@@H]5C(=O)O)CC3)cc21 [Compound B, monosodium salt]", "sign qualifier": "=", "MIC, µg/mL": 8}

Reference source: patent US5159077A
